- Protocol summary: solvent given as SMILES
- Conditions: in CC#N
Parameter: absorption maximum (nm)

smiles_string=O=C(O)c1ccc(-c2nc(-c3ccccc3)c3ccccn23)cc1 parameter="absorption maximum" reported_value=372
smiles_string=COc1cc2c(cc1C=C(C#N)C#N)c1ccccc1n2C parameter="absorption maximum" reported_value=422
smiles_string=CCC1(CC)c2cc(B(c3c(C)cc(C)cc3C)c3c(C)cc(C)cc3C)ccc2-c2c1c1c(c3c2C(CC)(CC)c2cc(N(c4ccccc4)c4ccccc4)ccc2-3)C(CC)(CC)c2cc(B(c3c(C)cc(C)cc3C)c3c(C)cc(C)cc3C)ccc2-1 parameter="absorption maximum" reported_value=359
smiles_string=COc1ccc2c(c1)N(c1ccccc1-c1ccccc1)c1cc3c(cc1=N2)Oc1c(cc(C(C)(C)C)cc1C(C)(C)C)N=3 parameter="absorption maximum" reported_value=532
smiles_string=O=C1Nc2ccccc2/C1=C/C(=O)c1ccc(O)cc1 parameter="absorption maximum" reported_value=332
smiles_string=O=C1c2ccccc2-c2c(-c3cc(Br)ccc3O)[nH]c(=O)n21 parameter="absorption maximum" reported_value=390
smiles_string=CCCCN(CCCC)c1ccc(/C=C/c2ccc3nc(-c4ccccc4)c(/C=C/c4ccc(N(C)C)cc4)nc3c2)cc1 parameter="absorption maximum" reported_value=462
smiles_string=Cc1ccc2nc3c(=O)[nH]c(=O)[nH]c3nc2c1C parameter="absorption maximum" reported_value=375

* * *

- Protocol summary: solvent given as SMILES
- Conditions: in CC(C)=O
Parameter: absorption maximum (nm)
Quick reminder: number only, in nm, skip the unit.

smiles_string=c1ccc(-c2cc(-c3ccc(-c4nc(-c5ccccn5)c(-c5ccccn5)[nH]4)cc3)cc(-c3ccccn3)n2)nc1 reported_value=381
smiles_string=Cc1ccc(-c2cc(-c3ccccc3Cl)c3c(N)nc(N4CCCC4)c(C#N)c3n2)cc1 reported_value=422
smiles_string=CCCCCCC(CCCCCC)n1c(=O)c2c3ccc4cccc5c6cccc7ccc(c2c1=O)c(c76)c3c45 reported_value=336
smiles_string=COc1ccc(/C=C/C2=[O+][B-](F)(F)OC(/C=C/c3ccc(OC)cc3)=C2c2ccccc2)cc1 reported_value=500
smiles_string=COc1ccc(-c2nc(N)nc(C#N)c2C#N)cc1OC reported_value=348
smiles_string=CN(C)c1ccc(C#Cc2ccc3ccc4ccc(C#Cc5ccc(N(C)C)cc5)c5ccc2c3c45)cc1 reported_value=431
smiles_string=O=Cc1cc(O)ccc1O reported_value=364
smiles_string=Cc1cc(C2(c3cc(C)c(O)c(Br)c3)OS(=O)(=O)c3ccccc32)cc(Br)c1O reported_value=394
smiles_string=CCN(CC)c1ccc2nc3c4ccccc4c(=O)cc-3oc2c1 reported_value=533
smiles_string=CC[n+]1ccc2ccccc2c1/C=C/c1c([O-])ccc2ccc(=O)oc12 reported_value=603.44

Identify measured absorption maximum associated with Oc1ccc(/N=C/c2ccccc2Oc2ccccc2)cc1
342

Identify measured absorption maximum associated with COc1ccc(N(c2ccc(OC)cc2)c2cc3ccc4cc(B(c5c(C)cc(C)cc5C)c5c(C)cc(C)cc5C)cc5ccc(c2)c3c45)cc1
395

Identify measured absorption maximum associated with CN(C)c1cc(C#N)c(N(C)C)c(C#N)c1
389.86

Identify measured absorption maximum associated with CCC1=C(C)C2=Cc3c(I)c(I)cn3[B-](F)(F)[N+]2=C1C
509

Identify measured absorption maximum associated with Cn1c(=O)c(/N=N/c2ccc(S(=O)(=O)O)c3ccccc23)c(O)c2ccccc21
465

Identify measured absorption maximum associated with CC(C)(C)NC1=C2C=CC=[N+]2[B-](F)(F)n2cccc21
409.5

Identify measured absorption maximum associated with Cc1ccc(C(=O)/C=C/c2ccc(N(C)C)cc2)cc1
405

Identify measured absorption maximum associated with COc1cccc(OC)c1C1=C2C(C)=CC(C)=[N+]2[B-](F)(F)n2c(C)cc(C)c21
503

Identify measured absorption maximum associated with CN(C)CCNc1ccc([N+](=O)[O-])cc1[N+](=O)[O-]
352

Identify measured absorption maximum associated with CC(C)(C)c1ccc2c(c1)c1cc(C(C)(C)C)ccc1n2-c1ccc(-c2nc(-c3ccc(P(=O)(c4ccccc4)c4ccccc4)cc3)nc(-c3ccc(P(=O)(c4ccccc4)c4ccccc4)cc3)n2)cc1
366.18

Identify measured absorption maximum associated with F[B-]1(F)N(c2ccccc2)C=Cc2cccc[n+]21
422

* * *

- Protocol summary: solvent given as SMILES
- Conditions: in ClCCl
Parameter: absorption maximum (nm)

molecule=Cc1cccc2nc(-c3ccc(-c4cc(=O)cc(-c5ccccc5)o4)cc3)c(NC3CCCCC3)n12 reported_value=356
molecule="O=P1(c2ccccc2)C(c2ccccc2)=Cc2cc3ccccc3cc21 (centres undefined)" reported_value=387
molecule=O=C1c2ccccc2C2=Nc3cccc4cccc(c34)N12 reported_value=448
molecule=CC1=C(C#Cc2ccccc2)C(C)=[N+]2C1=C(c1ccccc1)c1c(C)c(C#Cc3ccccc3)c(C)n1[B-]2(F)F reported_value=561
molecule=CCN(CC)c1ccc(/C=N/c2cc3ccccc3cc2/N=C/c2ccc(N(CC)CC)cc2O)c(O)c1 reported_value=447
molecule=Cc1ccc(-c2cc(-c3ccccc3Cl)c3c(N)nc(N4CCCC4)c(C#N)c3n2)cc1 reported_value=422
molecule=CCCCN(CCCC)c1ccc(/C=C/c2ccc3nc(-c4ccccc4)c(/C=C/c4ccc(N(C)C)cc4)nc3c2)cc1 reported_value=468
molecule=CCCCN1C(=O)c2cc(Oc3ccc(C(C)(C)C)cc3)c3c4c(Oc5ccc(C(C)(C)C)cc5)cc5c(=O)[nH]/c(=C\c6ccccn6)c6cc(Oc7ccc(C(C)(C)C)cc7)c(c7c(Oc8ccc(C(C)(C)C)cc8)cc(c2c37)C1=O)c4c56 reported_value=615
molecule=Cn1c(=O)cc(C(=O)c2ccccc2)c2sc(-c3ccc(N(c4ccccc4)c4ccccc4)cc3)cc21 reported_value=438

* * *

- Protocol summary: solvent given as SMILES
- Conditions: in Cc1ccccc1
Parameter: absorption maximum (nm)
Quick reminder: number only, in nm, skip the unit.

smiles_string=CC[n+]1ccc2ccccc2c1/C=C/c1c([O-])ccc2ccc(=O)oc12 unit_name=nm reported_value=655.01
smiles_string=CC(C)(C)c1ccc2c(c1)c1cc(C(C)(C)C)ccc1n2-c1ccc(S(=O)(=O)c2ccc(S(=O)(=O)c3ccc(-n4c5ccc(C(C)(C)C)cc5c5cc(C(C)(C)C)ccc54)cc3)cc2)cc1 unit_name=nm reported_value=363
smiles_string=CCN(CC)c1ccc2nc3c4ccccc4c(=O)cc-3oc2c1 unit_name=nm reported_value=524
smiles_string=CC1(C)c2ccccc2N(c2ccc(-c3ccc4c(c3)c3cc(-c5ccc(N6c7ccccc7C(C)(C)c7ccccc76)cc5)ccc3c3nc(C#N)c(C#N)nc43)cc2)c2ccccc21 unit_name=nm reported_value=405
smiles_string=Cc1cc(C)c(B(c2cc3ccc4cccc5ccc(c2)c3c45)c2c(C)cc(C)cc2C)c(C)c1 unit_name=nm reported_value=413
smiles_string=CCCCCCCCC1(CCCCCCCC)c2cc(-c3ccc([N+](=O)[O-])cc3)ccc2-c2ccc(-c3ccc([N+](=O)[O-])cc3)cc21 unit_name=nm reported_value=365
smiles_string=O=P1(c2ccccc2)c2cc(N3c4ccccc4Sc4ccccc43)ccc2-c2ccc(N3c4ccccc4Sc4ccccc43)cc21 unit_name=nm reported_value=399
smiles_string=CC(C)(C)c1ccc2c(c1)c1cc(C(C)(C)C)ccc1n2-c1cc(C(=O)c2cccnc2)cc(-n2c3ccc(C(C)(C)C)cc3c3cc(C(C)(C)C)ccc32)c1 unit_name=nm reported_value=381

Identify measured absorption maximum associated with CC1(C)c2ccccc2N(c2ccccc2)c2ccc(-c3ccc(S(=O)(=O)c4ccc(-c5ccc6c(c5)C(C)(C)c5ccccc5N6c5ccccc5)cc4)cc3)cc21
363.38

Identify measured absorption maximum associated with CC(C)(C)c1cc2ccc3c(-c4ccc(N(c5ccccc5)c5ccccc5)cc4)ccc4c5nc6cc(C#N)c(C#N)cc6nc5c(c1)c2c34
500

Identify measured absorption maximum associated with COc1cc(OC)cc(C2=C(c3cc(OC)c(OC)c(OC)c3)C3=Nc4c(-c5cc(OC)c(OC)c(OC)c5)c(-c5cc(OC)cc(OC)c5)c(-c5ccc(C(C)(C)C)cc5)n4[B-](F)(F)[N+]3=C2c2ccc(C(C)(C)C)cc2)c1
674

Identify measured absorption maximum associated with CC(C)(C)c1ccc2c(c1)c1cc(C(C)(C)C)ccc1n2-c1ccccc1-c1nc(-c2ccccc2-n2c3ccc(C(C)(C)C)cc3c3cc(C(C)(C)C)ccc32)nc(-c2ccccc2P(=O)(c2ccccc2)c2ccccc2)n1
340.7

Identify measured absorption maximum associated with CCn1c2ccccc2c2c3nsnc3c3c4ccccc4n(CC)c3c21
420

Identify measured absorption maximum associated with CC(C)(C)c1cc2c(c(C(C)(C)C)c1)O[B-](F)(F)[n+]1c-2nc(-c2ccccc2)c2ccccc21
410

* * *

- Protocol summary: solvent given as SMILES
- Conditions: in ClCCl
Parameter: absorption maximum (nm)

Example entries begin here.
smiles_string=C#Cc1cccc2ccccc12 reported_value=312
smiles_string=F[B-]1(F)n2cccc2C(c2c3ccccc3cc3ccccc23)=C2C=CC=[N+]21 reported_value=506
smiles_string=N#CC(C#N)=Cc1ccc2c(c1)[nH]c1c3ccccc3sc21 reported_value=445

P = CCCCCCOC(=O)/C=C/C1=CC2=C(c3c(C)cc(C)cc3C)c3cc(/C=C/C(=O)OCCCCCC)cn3[B-](F)(F)[N+]2=C1
Q = C(#Cc1ncc(-c2ccccc2)o1)c1cccnc1
Of P and Q , whose reported absorption maximum is the larger number? // caller expects the label of the chosen entry
P
(P: 579 nm, Q: 330 nm)
